B1: glmS ribozyme (parent)
chain: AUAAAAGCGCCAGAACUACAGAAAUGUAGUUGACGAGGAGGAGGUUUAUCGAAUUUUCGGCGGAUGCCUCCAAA

variants of: B1; assay: self-cleavage kobs at 160 uM GlcN6P; higher = faster cleavage; RNA array; conditions: with glucosamine-6-phosphate
This sample holds only a part of the variants without activity.
reported.metric: self-cleavage kobs at 160 uM GlcN6P

Example entries and their recorded answers appear below.
variant.notation	measured.result
A42G U55G G62C	< 1e-05 s⁻¹
G7U A14C G66U	< 1e-05 s⁻¹
C34A G51A	< 1e-05 s⁻¹
A42U U55A G60A C71G	< 1e-05 s⁻¹
A12C A36G U69C	< 1e-05 s⁻¹
G32C U47C	< 1e-05 s⁻¹
A12U U56G G66C	0.000132 s⁻¹
G9A C16U	< 1e-05 s⁻¹
C34G G41C	< 1e-05 s⁻¹
A6G A42C	< 1e-05 s⁻¹

Could you now consider this next variant?
Which self-cleavage kobs at 160 uM GlcN6P is listed for U45C C68U ?
8.24e-05 s⁻¹
